- System: NCI-H460 tumor-bearing mice (lung cancer)
- METHOD: Biodistribution: lutetium accumulation in tumor, plasma and healthy tissues by ICP-MS
- Type: in vivo
- RECORDED CONDITIONS: second table; kidney; 24 h
Binary label based on Kidney uptake, % ID/g 24 h with cut-off 2 % ID/g: below gives Met, not below gives Not met.

INSERT INTO assay_data (compound, assigned_category) VALUES
  ('CCNC(=O)c1nnc(-c2cc(C(C)C)c(O)cc2O)n1-c1ccc(OC2CCN(C(=O)CCNC(=O)[C@@H](CCC(=O)N3CCC(Oc4ccc(-n5c(C(=O)NCC)nnc5-c5cc(C(C)C)c(O)cc5O)cc4)CC3)NC(=O)CCOCCOCCOCCOCCOCCOCCOCCOCCOCCOCCOCCOCCNC(=O)CN3CCN4CCN5CCN(CC3)CC(=O)[O][Lu]([O]C(=O)C4)[O]C(=O)C5)CC2)cc1', 'Not met'),
  ('CCNC(=O)c1nnc(-c2cc(C(C)C)c(O)cc2O)n1-c1ccc(CC2CCN(C(=O)CCOCCOCCOCCOCCOCCOCCOCCOCCOCCOCCOCCOCCNC(=O)[C@H](CCCCNC(=O)CCCc3ccc(I)cc3)NC(=O)CN3CCN4CCN5CCN(CC3)CC(=O)[O][Lu]([O]C(=O)C4)[O]C(=O)C5)CC2)cc1', 'Not met'),
  ('CCNC(=O)c1nnc(-c2cc(C(C)C)c(O)cc2O)n1-c1ccc(OC2CCN(C(=O)CCOCCOCCOCCOCCOCCOCCOCCOCCOCCOCCOCCOCCNC(=O)CN3CCN4CCN5CCN(CC3)CC(=O)[O][Lu]([O]C(=O)C4)[O]C(=O)C5)CC2)cc1', 'Met'),
  ('CCNC(=O)c1nnc(-c2cc(C(C)C)c(O)cc2O)n1-c1ccc(CN2CCN(C(=O)C[C@H](NC(=O)CCNC(=O)[C@@H](CO)NC(=O)[C@@H](CO)NC(=O)[C@@H](CO)NC(=O)CC[C@H](C(=O)O)N3CCN4CCN5CCN(CC3)CC(=O)[O][Lu]([O]C(=O)C5)[O]C(=O)C4)C(=O)N[C@H](C)C(=O)N3CCN(Cc4ccc(-n5c(C(=O)NCC)nnc5-c5cc(C(C)C)c(O)cc5O)cc4)CC3)CC2)cc1', 'Met'),
  ('CCNC(=O)c1nnc(-c2cc(C(C)C)c(O)cc2O)n1-c1ccc(CN2CCN(C(=O)C[C@H](NC(=O)CCNC(=O)[C@H](CO)NC(=O)[C@H](CO)NC(=O)[C@H](CO)NC(=O)CC[C@H](C(=O)O)N3CCN4CCN5CCN(CC3)CC(=O)[O][Lu]([O]C(=O)C5)[O]C(=O)C4)C(=O)N[C@H](C)C(=O)N3CCN(Cc4ccc(-n5c(C(=O)NCC)nnc5-c5cc(C(C)C)c(O)cc5O)cc4)CC3)CC2)cc1', 'Met'),
  ('CCNC(=O)c1nnc(-c2cc(C(C)C)c(O)cc2O)n1-c1ccc(CN2CCN(C(=O)CCOCCOCCOCCOCCNC(=O)CN3CCN4CCN5CCN6CC(=O)O[C]6(C3)[Lu]([O]C(=O)C4)[O]C(=O)C5)CC2)cc1 (stereo not drawn)', 'Met');

====

- System: NCI-H460 tumor-bearing mice (lung cancer)
- METHOD: Biodistribution: lutetium accumulation in tumor, plasma and healthy tissues by ICP-MS
- Assay type: in vivo
- RECORDED CONDITIONS: 24 h
ENDPOINT LABEL: T/L (Tumor/Liver ratio)

INSERT INTO results (compound, experimental_system, endpoint_label, recorded_measurement) VALUES
  ('CCNC(=O)c1nnc(-c2cc(C(C)C)c(O)cc2O)n1-c1ccc(CN2CCN(C(=O)CCOCCOCCOCCOCCNC(=O)CN3CCN4CCN5CCN6CC(=O)O[C]6(C3)[Lu]([O]C(=O)C4)[O]C(=O)C5)CC2)cc1 (stereo not shown)', 'NCI-H460 tumor-bearing mice (lung cancer)', 'T/L (Tumor/Liver ratio)', 1.92),
  ('CCNC(=O)c1nnc(-c2cc(C(C)C)c(O)cc2O)n1-c1ccc(CC2CCN(C(=O)CCOCCOCCOCCOCCNC(=O)[C@H](CCCCNC(=O)CCCc3ccc(I)cc3)NC(=O)CN(CC)CCN3CCN4CCN(C)CC(=O)[O][Lu]([O]C(=O)C4)[O]C(=O)C3)CC2)cc1', 'NCI-H460 tumor-bearing mice (lung cancer)', 'T/L (Tumor/Liver ratio)', 3.55),
  ('CCNC(=O)c1nnc(-c2cc(C(C)C)c(O)cc2O)n1-c1ccc(CC2CCN(C(=O)CCOCC(COCCC(=O)N3CCC(Cc4ccc(-n5c(C(=O)NCC)nnc5-c5cc(C(C)C)c(O)cc5O)cc4)CC3)NC(=O)CC[C@H](C(=O)O)N3CCN4CCN5CCN(CC3)CC(=O)[O][Lu]([O]C(=O)C5)[O]C(=O)C4)CC2)cc1', 'NCI-H460 tumor-bearing mice (lung cancer)', 'T/L (Tumor/Liver ratio)', 1.67),
  ('CC(C)c1cc(-c2nnc(O)n2-c2ccc(OC3CCN(C(=O)CCOCCOCCOCCOCCOCCOCCOCCOCCOCCOCCOCCOCCNC(=O)CN4CCN5CCN6CCN(CC4)CC(=O)[O][Lu]([O]C(=O)C5)[O]C(=O)C6)CC3)cc2)c(O)cc1O', 'NCI-H460 tumor-bearing mice (lung cancer)', 'T/L (Tumor/Liver ratio)', 9.89);

====

// values below are reported Tumor uptake, % ID/g, 24 h
- Tested on: NCI-H460 tumor-bearing mice (lung cancer)
- METHOD: Biodistribution: lutetium accumulation in tumor, plasma and healthy tissues by ICP-MS
- Format: in vivo
- RECORDED CONDITIONS: second table; tumor; 24 h
ENDPOINT LABEL: Tumor uptake, % ID/g, 24 h (% ID/g)

INSERT INTO results (compound, experimental_system, endpoint_label, recorded_measurement) VALUES
  ('CCNC(=O)c1nnc(-c2cc(C(C)C)c(O)cc2O)n1-c1ccc(CC2CCN(C(=O)CCC(=O)N[C@@H](CCCCNC(=O)CN3CCN4CCN5CCN(CC3)CC(=O)[O][Lu]([O]C(=O)C4)[O]C(=O)C5)C(=O)N3CCC(Cc4ccc(-n5c(C(=O)NCC)nnc5-c5cc(C(C)C)c(O)cc5O)cc4)CC3)CC2)cc1 [CMP24]', 'NCI-H460 tumor-bearing mice (lung cancer)', 'Tumor uptake, % ID/g, 24 h', 12.39),
  ('CCNC(=O)c1nnc(-c2cc(C(C)C)c(O)cc2O)n1-c1ccc(OC2CCN(C(=O)CCNC(=O)[C@@H](CCC(=O)N3CCC(Oc4ccc(-n5c(C(=O)NCC)nnc5-c5cc(C(C)C)c(O)cc5O)cc4)CC3)NC(=O)CCOCCOCCOCCOCCOCCOCCOCCOCCOCCOCCOCCOCCNC(=O)CN3CCN4CCN5CCN(CC3)CC(=O)[O][Lu]([O]C(=O)C4)[O]C(=O)C5)CC2)cc1 [CMP36]', 'NCI-H460 tumor-bearing mice (lung cancer)', 'Tumor uptake, % ID/g, 24 h', 3.32),
  ('CCNC(=O)c1nnc(-c2cc(C(C)C)c(O)cc2O)n1-c1ccc(OC2CCN(C(=O)CCOCCOCCOCCOCCNC(=O)CC[C@@H](C(=O)O)N(CC)CCN3CCN4CCN(C)CC(=O)[O][Lu]([O]C(=O)C4)[O]C(=O)C3)CC2)cc1 [CMP2]', 'NCI-H460 tumor-bearing mice (lung cancer)', 'Tumor uptake, % ID/g, 24 h', 0.927);

====

- System: NCI-H460 tumor-bearing mice (lung cancer)
- METHOD: Biodistribution: lutetium accumulation in tumor, plasma and healthy tissues by ICP-MS
- Format: in vivo
- RECORDED CONDITIONS: second table; plasma; 24 h
Define the label as MET when Plasma, % ID/g 24 h is strictly less than 0.8 % ID/g and as NOT MET in all remaining cases.

INSERT INTO results (cpd_smiles, experimental_system, assigned_category) VALUES
  ('CCNC(=O)c1nnc(-c2cc(C(C)C)c(O)cc2O)n1-c1ccc(OC2CCN(C(=O)CCOCCOCCOCCOCCNC(=O)CC[C@@H](C(=O)O)N(CC)CCN3CCN4CCN(C)CC(=O)[O][Lu]([O]C(=O)C4)[O]C(=O)C3)CC2)cc1', 'NCI-H460 tumor-bearing mice (lung cancer)', 'MET'),
  ('CCNC(=O)c1nnc(-c2cc(C(C)C)c(O)cc2O)n1-c1ccc(C2CN(C(=O)CCOCCOCCOCCOCCOCCOCCOCCOCCOCCOCCOCCOCCNC(=O)CN3CCN4CCN5CCN(CC3)CC(=O)[O][Lu]([O]C(=O)C4)[O]C(=O)C5)C2)cc1', 'NCI-H460 tumor-bearing mice (lung cancer)', 'MET'),
  ('CCNC(=O)c1nnc(-c2cc(C(C)C)c(O)cc2O)n1-c1ccc(CC2CCN(C(=O)CCOCCOCCOCCOCCNC(=O)[C@H](CCCCNC(=O)CCCc3ccc(I)cc3)NC(=O)CN(CC)CCN3CCN4CCN(C)CC(=O)[O][Lu]([O]C(=O)C4)[O]C(=O)C3)CC2)cc1', 'NCI-H460 tumor-bearing mice (lung cancer)', 'NOT MET'),
  ('CCNC(=O)c1nnc(-c2cc(C(C)C)c(O)cc2O)n1-c1ccc(OC2CCN(C(=O)CCOCCOCCOCCOCCOCCOCCOCCOCCOCCOCCOCCOCCNC(=O)[C@H](CCCCNC(=O)CCCc3ccc(I)cc3)NC(=O)CN3CCN4CCN5CCN(CC3)CC(=O)[O][Lu]([O]C(=O)C4)[O]C(=O)C5)CC2)cc1', 'NCI-H460 tumor-bearing mice (lung cancer)', 'NOT MET'),
  ('CCNC(=O)c1nnc(-c2cc(C(C)C)c(O)cc2O)n1-c1ccc(OC2CCN(C(=O)CCOCCOCCOCCOCCNC(=O)CN3CCN4CCN5CCN(CC3)CC(=O)[O][Lu]([O]C(=O)C4)[O]C(=O)C5)CC2)cc1', 'NCI-H460 tumor-bearing mice (lung cancer)', 'MET'),
  ('CCNC(=O)c1nnc(-c2cc(C(C)C)c(O)cc2O)n1-c1ccc(C2CCN(C(=O)CCOCCOCCOCCOCCOCCOCCOCCOCCOCCOCCOCCOCCNC(=O)CN3CCN4CCN5CCN(CC3)CC(=O)[O][Lu]([O]C(=O)C4)[O]C(=O)C5)CC2)cc1', 'NCI-H460 tumor-bearing mice (lung cancer)', 'MET'),
  ('CCNC(=O)c1nnc(-c2cc(C(C)C)c(O)cc2O)n1-c1ccc(C2CCN(C(=O)CCOCCOCCOCCOCCNC(=O)CN3CCN4CCN5CCN(CC3)CC(=O)[O][Lu]([O]C(=O)C4)[O]C(=O)C5)CC2)cc1', 'NCI-H460 tumor-bearing mice (lung cancer)', 'MET'),
  ('CC(C)c1cc(-c2nnc(O)n2-c2ccc(OC3CCN(C(=O)CCOCCOCCOCCOCCNC(=O)CN4CCN5CCN6CCN(CC4)CC(=O)[O][Lu]([O]C(=O)C5)[O]C(=O)C6)CC3)cc2)c(O)cc1O', 'NCI-H460 tumor-bearing mice (lung cancer)', 'MET'),
  ('CCNC(=O)c1nnc(-c2cc(C(C)C)c(O)cc2O)n1-c1ccc(CC2CCN(C(=O)CCOCCOCCOCCOCCOCCOCCOCCOCCOCCOCCOCCOCCNC(=O)[C@H](CCCCNC(=O)CCCc3ccc(I)cc3)NC(=O)CN3CCN4CCN5CCN(CC3)CC(=O)[O][Lu]([O]C(=O)C4)[O]C(=O)C5)CC2)cc1', 'NCI-H460 tumor-bearing mice (lung cancer)', 'NOT MET'),
  ('CCNC(=O)c1nnc(-c2cc(C(C)C)c(O)cc2O)n1-c1ccc(CN2CCN(C(=O)C[C@H](NC(=O)CCNC(=O)[C@@H](CO)NC(=O)[C@@H](CO)NC(=O)[C@@H](CO)NC(=O)CC[C@H](C(=O)O)N3CCN4CCN5CCN(CC3)CC(=O)[O][Lu]([O]C(=O)C5)[O]C(=O)C4)C(=O)N[C@H](C)C(=O)N3CCN(Cc4ccc(-n5c(C(=O)NCC)nnc5-c5cc(C(C)C)c(O)cc5O)cc4)CC3)CC2)cc1', 'NCI-H460 tumor-bearing mice (lung cancer)', 'NOT MET'),
  ('CCNC(=O)c1nnc(-c2cc(C(C)C)c(O)cc2O)n1-c1ccc(C2CN(C(=O)CCOCCOCCOCCOCCNC(=O)CN3CCN4CCN5CCN(CC3)CC(=O)[O][Lu]([O]C(=O)C4)[O]C(=O)C5)C2)cc1', 'NCI-H460 tumor-bearing mice (lung cancer)', 'MET'),
  ('CCNC(=O)c1nnc(-c2cc(C(C)C)c(O)cc2O)n1-c1ccc(OC2CCN(C(=O)CCOCCOCCOCCOCCNC(=O)[C@H](CCCCNC(=O)CCCc3ccc(I)cc3)NC(=O)CN3CCN4CCN5CCN(CC3)CC(=O)[O][Lu]([O]C(=O)C4)[O]C(=O)C5)CC2)cc1', 'NCI-H460 tumor-bearing mice (lung cancer)', 'NOT MET'),
  ('CCNC(=O)c1nnc(-c2cc(C(C)C)c(O)cc2O)n1-c1ccc(CC2CCN(C(=O)CCOCC(COCCC(=O)N3CCC(Cc4ccc(-n5c(C(=O)NCC)nnc5-c5cc(C(C)C)c(O)cc5O)cc4)CC3)NC(=O)CC[C@H](C(=O)O)N3CCN4CCN5CCN(CC3)CC(=O)[O][Lu]([O]C(=O)C5)[O]C(=O)C4)CC2)cc1', 'NCI-H460 tumor-bearing mice (lung cancer)', 'NOT MET'),
  ('CCNC(=O)c1nnc(-c2cc(C(C)C)c(O)cc2O)n1-c1ccc(CC2CCN(C(=O)C[C@H](NC(=O)CN3CCN4CCN5CCN(CC3)CC(=O)[O][Lu]([O]C(=O)C4)[O]C(=O)C5)C(=O)N[C@H](C)C(=O)N3CCC(Cc4ccc(-n5c(C(=O)NCC)nnc5-c5cc(C(C)C)c(O)cc5O)cc4)CC3)CC2)cc1', 'NCI-H460 tumor-bearing mice (lung cancer)', 'NOT MET'),
  ('CCNC(=O)c1nnc(-c2cc(C(C)C)c(O)cc2O)n1-c1ccc(CC2CCN(C(=O)CCC(=O)N[C@@H](CCCCNC(=O)CN3CCN4CCN5CCN(CC3)CC(=O)[O][Lu]([O]C(=O)C4)[O]C(=O)C5)C(=O)N3CCC(Cc4ccc(-n5c(C(=O)NCC)nnc5-c5cc(C(C)C)c(O)cc5O)cc4)CC3)CC2)cc1', 'NCI-H460 tumor-bearing mice (lung cancer)', 'NOT MET');
